- Assay notes: Pharmacokinetic study with Compound 218 (IV 5 mg/kg, PO 25 mg/kg)
- Type: in vivo
- Experimental context: dog, plasma; analyte Compound 218; oral 25 mg/kg Compound 218; fasted male beagle dogs; mean; read-out: Compound 218 PK t1/2 (converted)
Readout type: half-life (h)
Quick reminder: number only, in h, skip the unit.

stdin: Report measured half-life; entry is CC(=O)[C@H]1CC[C@H]2[C@@H]3CC[C@H]4C[C@](C)(OC(=O)COC(=O)C(C)(C)N)CC[C@]4(C)[C@H]3CC[C@]12C
stdout: 6.13

###

- Assay notes: Dog liver microsomal stability
- Format: in vitro ADME
- Experimental context: dog liver microsomes, no NADPH, 1 h
- Protocol: For several compounds only human liver microsomal stability was tested. […] The microsomal assays were carried out with and without the addition of NADPH at a final concentration of 1 mM. For negative control samples, NADPH reagent was not added. […] Note that compounds undergo only Phase I metabolism in liver microsomes. CLint=the intrinsic hepatic clearance (uL/min/mg), where CLint is equal to 0.693/(t1/2×Cmp) […]
Readout type: Dog Liver Microsomal Stability no NADPH, % remain 1 h

CC(=O)[C@H]1CC[C@H]2[C@@H]3CC[C@H]4C[C@](C)(OC(=O)COC(=O)C(C)(C)N)CC[C@]4(C)[C@H]3CC[C@]12C | 44.4%

stdin: # return recorded Dog Liver Microsomal Stability no NADPH, % remain 1 h for input CC(=O)[C@H]1CC[C@H]2[C@@H]3CC[C@H]4C[C@](C)(OC(=O)COC(=O)C(C)(C)OC(=O)CN(CCO)CCO)CC[C@]4(C)[C@H]3CC[C@]12C
stdout: 12.9%

stdin: Return the recorded Dog Liver Microsomal Stability no NADPH, % remain 1 h value; entry: CC(=O)[C@H]1CC[C@H]2[C@@H]3CC[C@H]4C[C@](C)(OC(=O)CNC(C)(C)C(=O)O)CC[C@]4(C)[C@H]3CC[C@]12C
stdout: 83%

stdin: For the compound CC(=O)[C@H]1CC[C@H]2[C@@H]3CC[C@H]4C[C@](C)(O)CC[C@]4(C)[C@H]3CC[C@]12C , give its reported Dog Liver Microsomal Stability no NADPH, % remain 1 h.
stdout: 43.6%

stdin: Return reported Dog Liver Microsomal Stability no NADPH, % remain 1 h. Input compound: CC(=O)OCCN(CCOC(C)=O)CC(=O)OC(C)(C)C(=O)OCC(=O)O[C@]1(C)CC[C@@]2(C)[C@@H](CC[C@@H]3[C@@H]2CC[C@]2(C)[C@@H](C(C)=O)CC[C@@H]32)C1
stdout: 1%

stdin: Please list Dog Liver Microsomal Stability no NADPH, % remain 1 h recorded for the compound CC(=O)[C@H]1CC[C@H]2[C@@H]3CC[C@H]4C[C@](C)(OC(=O)CN)CC[C@]4(C)[C@H]3CC[C@]12C
stdout: 92.3%

###

- Assay notes: Pharmacokinetic study with Compound 111 (IV 5 mg/kg, PO 25 mg/kg)
- Assay type: in vivo
- Experimental context: dog, plasma; analyte Compound 111; IV 5 mg/kg Compound 111; fasted male beagle dogs; mean; read-out: Compound 111 PK AUCinf
Readout type: AUC(0-inf) (ng·h/mL)
Give the value, in units of ng·h/mL, as a plain number.

stdin: Give the reported value of AUC(0-inf) for this record: CC(=O)[C@H]1CC[C@H]2[C@@H]3CC[C@H]4C[C@](C)(OC(=O)CN)CC[C@]4(C)[C@H]3CC[C@]12C
stdout: 2790
